Where these numbers come from: patent US5364867A

Parameter Ki: see the listing below.
Molecular target: sigma receptors
Assay: sigma receptor binding, [3H]di(2-tolyl)-guanidine (DTG) assay, guinea pig brain membranes
Settings: [3H]DTG approximately 4 nM; male Hartley guinea pig brain membranes; 25° C. for 90 min; nonspecific binding 10 μM haloperidol
Where a name gives a salt, the structure may show the parent alone.
// note: answer is a bare numeric in nM

Answered cases to consult:
{"compound": "CCC(=O)OC1(c2ccccc2)CCN(CCC(=NO)c2ccccc2)CC1", "quantitative-readout": 589}
{"compound": "Oc1cccc(C2CCN(CCCc3ccccc3)CC2)c1 [Example 3b, hydrochloride]", "quantitative-readout": 0.65}
{"compound": "CCC(=O)C1(c2ccccc2)CCN(CCCc2ccccc2)CC1", "quantitative-readout": 9.1}
{"compound": "O=C(O)C1(c2ccccc2)CCN(CCCc2ccccc2)CC1", "quantitative-readout": 16.4}
{"compound": "O=C(N1CCCC1)C1(c2ccccc2)CCN(CCCc2ccccc2)CC1", "quantitative-readout": 116}
{"compound": "O=C(c1ccccc1)C1(c2ccccc2)CCN(CCCc2ccccc2)CC1", "quantitative-readout": 22.1}
{"compound": "COc1cccc(C2CCN(CCCc3ccccc3)CC2)c1 [Example 3a, hydrochloride]", "quantitative-readout": 2.21}
{"compound": "O=C(CCc1ccccc1)N1CCC(O)(c2ccccc2)CC1", "quantitative-readout": 34400}

Continue with the compound presented below.
response.value for CCOC(=O)C1(c2ccccc2)CCN(CCCc2ccccc2)CC1 (field: Ki) = 88.9
